Values from ChEMBL document CHEMBL4028840

system: Trypanosoma cruzi; assay: Anti-parasitic activity against Trypanosoma cruzi Tulahuen CL2 infected in human MRC5 cells after 7 days by chlorophenol red […]-D-galactopyranoside dye based assay; assay type: functional, cell-based; settings: Trypanosoma cruzi, Tulahuen CL2, MRC5, 168 h
Listed here: items and their measured IC50.

Molecule	Tgt	Unit annotation	IC50
O=[N+]([O-])c1cn2c(n1)OC(COc1ccc(Oc3ccccc3)cc1)C2 (stereo not given)	Trypanosoma cruzi	nM	3100
CC1(COc2ccc(Oc3ccccc3)cc2)Cn2cc([N+](=O)[O-])nc2O1 (stereo not given)	Trypanosoma cruzi	nM	1900
C[C@]1(COCc2ccc(OC(F)(F)F)cc2)Cn2cc([N+](=O)[O-])nc2S1	Trypanosoma cruzi	nM	570
O=[N+]([O-])c1cn2c(n1)SC(COCc1ccc(OC(F)(F)F)cc1)C2 (stereo not given)	Trypanosoma cruzi	nM	870
CC1(COCc2ccc(OC(F)(F)F)cc2)Cn2c([N+](=O)[O-])cnc2S1 (stereo not given)	Trypanosoma cruzi	nM	7300
